# Lookup of reported TGI keyed by entry
system: COLO 205 colon; test: NCI tumour cell line growth inhibition, 48 h

Solved entries (count: 2):
[[record]]
compound = "N#C/C(=C\\c1ccccc1Br)C(=O)c1ccccc1"
measuredvalue = "> 100 µM"

[[record]]
compound = "C1CC[N-]CC1.CC(=N\\O)/C(C)=N/O.CC(=N\\O)/C(C)=N/O.[CH2-]CCN1CCOCC1.[Co+2]"
measuredvalue = "> 100 µM"


Task: Provide the documented TGI with COLO 205 colon as the system for CC1(C)C2CCC(N)(C2)C1O (configuration not stated)
Result: > 100 µM

Task: Return TGI measured with COLO 205 colon given this compound: Cc1sc2nc3n(c(=O)c2c1C)N=C(c1ccc([N+](=O)[O-])cc1)CS3
Result: > 100 µM

Task: TGI of NS(=O)(=O)c1ccc(NC(=O)COC(=O)c2cccc3c(=O)c4ccccc4[nH]c23)cc1 on COLO 205 colon?
Result: > 100 µM

Task: Item: CCC1(O)CC(OC2CC(N(C)C)C(OC3CC(O)C(OC4CCC(=O)C(C)O4)C(C)O3)C(C)O2)c2c(O)c3c(c(O)c2C1C(=O)OC)C(=O)c1cccc(O)c1C3=O (configuration not stated) Test system: COLO 205 colon Read-out: TGI Value: ?
Result: 0.124 µM

Task: # value lookup — system COLO 205 colon, readout TGI, item CCCC1(N)CC(OC)OC(C)C1O (configuration not stated)
Result: > 100 µM

Task: Kindly state the measured TGI obtained for O=C(c1ccccc1)C1C(C(=O)c2ccccc2)C(c2ccccc2)N(c2ccccc2)C1c1ccccc1 (configuration not stated) with COLO 205 colon.
Result: > 100 µM

Task: Can you look up TGI on COLO 205 colon for Cn1ncc(-c2ccc3c(=O)[nH]nc(CN)c3c2)c1-c1c(F)cc2ccccc2c1C#N ?
Result: 18.3 µM

Task: What is its TGI for COLO 205 colon? Entry: OCC(O)C(O)C(O)C(O)/C=N/Nc1nc(O)c(/C=C2\C=Nc3ccccc32)[nH]1 (configuration not stated)
Result: > 100 µM

Task: Under COLO 205 colon: TGI value of COc1ccc2c(c1)CC[C@@H]1[C@@H]2CC[C@]2(C)C=C(/C=C/C(=O)c3ccccc3)C[C@@H]12 ?
Result: 40.4 µM

Task: # returns recorded TGI (system: COLO 205 colon) for COc1ccc(/C=N/Nc2nc(C)c3c(n2)Nc2ccccc2NC3=O)cc1
Result: > 100 µM

Task: // lookup TGI | system=COLO 205 colon | key= COC(=O)C1C2CC3C(OC(=O)C31)C2OC(=O)[C@](OC)(c1ccccc1)C(F)(F)F (some centres not stated)
Result: > 100 µM

Task: For COLO 205 colon, provide TGI of N=C(N)SCCc1ccccn1 please.
Result: > 100 µM

Task: Write down the reported TGI of COP(C)(=O)C(Cc1c[nH]c2ccccc12)NC(=O)OCc1ccccc1 (configuration not stated) , test system: COLO 205 colon.
Result: > 100 µM

Task: Recall the recorded TGI for C[N+](C)([O-])CCCNc1ccnc2cccc([N+](=O)[O-])c12 with COLO 205 colon and state it.
Result: 46.4 µM

Task: What value of TGI on COLO 205 colon does NCP(=O)(O)OCC(=O)O have?
Result: > 100 µM

Task: Request: TGI, test system COLO 205 colon, entry NC(=O)N/N=C(/c1nc2ccc([N+](=O)[O-])cc2[nH]c1=O)C(O)c1ccco1 (configuration not stated)
Result: > 100 µM

Task: Form entry - test system: COLO 205 colon; read-out: TGI; compound: CC(=O)O[C@H]1C=CC23OC(=O)[C@]1(C)[C@H]2[C@H](C(=O)O)C12CC(=O)[C@@](CO)(CC[C@H]13)C2
Result: > 100 µM

Task: For the record O=C1NC2(C=Cc3c(ccc4ccccc34)O2)Oc2ccccc21 (configuration not stated) , what value of TGI is listed for COLO 205 colon?
Result: 42.5 µM
